subjectOfTest: Kras and SOS1 (biotin-tagged human Kras loaded with GDP, His-tagged human SOS1) (Homo sapiens, UniProt P01116, G12D)
Construct: made in house; host or cells: E. coli (stated for Kras only)
Sequence (P01116 1-188 isoform P01116-2 G12D): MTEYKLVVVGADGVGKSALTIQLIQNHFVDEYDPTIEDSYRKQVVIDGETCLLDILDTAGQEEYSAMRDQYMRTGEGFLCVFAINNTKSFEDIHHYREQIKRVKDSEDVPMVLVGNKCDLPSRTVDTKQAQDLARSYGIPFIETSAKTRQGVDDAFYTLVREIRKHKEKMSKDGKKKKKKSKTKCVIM
measurementDescription: Protein-protein interaction inhibition between Kras and SOS1 (KrasGl2D-SOS PPI) using AlphaScreen
Format: binding
assaySetup: AlphaScreen; biotin-tagged human Kras loaded with GDP, His-tagged human SOS1; read-out: KRAS G12D-SOS PPI IC50
Positions of bridges follow the written chain, without caps; N, C: chain ends. Non-standard residues stand in square brackets, D forms with d. Residues, ends and D or L forms follow the SMILES beside them. *: point of attachment. hPhe(3-Cl-4-CF3) = N[C@@H](CCc1ccc(C(F)(F)F)c(Cl)c1)C(=O)O; NMeCha = CN[C@@H](CC1CCCCC1)C(=O)O; NMeCba = CN[C@@H](CC1CCC1)C(=O)O; NMeD = CN[C@@H](CC(=O)O)C(=O)O; NMeL = CN[C@@H](CC(C)C)C(=O)O; NMeV = CN[C@H](C(=O)O)C(C)C; d(β3hA) = C[C@@H](N)CC(=O)O; NMeA = CN[C@@H](C)C(=O)O; Piperidide = C1CCN(*)CC1; Ac5c = NC1(C(=O)O)CCCC1; Aze = O=C(O)[C@@H]1CCN1; Sar = CNCC(=O)O
Listing of entries alongside the reported IC50.
Number only, in nM; omit the unit.

| compound | IC50 / nM |
| --- | --- |
| CC[C@H](C)[C@@H]1NC(=O)[C@H](C)N(C)C(=O)C[C@@H](C)NC(=O)[C@H](C(C)C)N(C)C(=O)C2(CCCC2)NC(=O)[C@@H]2CCCN2C(=O)[C@H](CCc2ccc(C(F)(F)F)c(Cl)c2)NC(=O)[C@H]2CCCN2C(=O)[C@H](CC2CCCCC2)N(C)C(=O)[C@@H]2CCCN2C(=O)CN(C)C1=O [Compound 666] (cyclo([Ac5c][NMeV][d(β3hA)][NMeA]I[Sar]P[NMeCha][dP][hPhe(3-Cl-4-CF3)]P)) | 25 |

Consider now this further compound.
Query: Given CC[C@H](C)[C@@H]1NC(=O)[C@H](CC(C)C)N(C)C(=O)C[C@@H](C(=O)N2CCCCC2)N(C)C(=O)[C@H](CC2CCC2)N(C)C(=O)C2(CCCC2)NC(=O)[C@@H]2CCCN2C(=O)[C@H](CCc2ccc(C(F)(F)F)c(Cl)c2)NC(=O)CN(C)C(=O)[C@H](CC2CCCCC2)N(C)C(=O)[C@@H]2CCN2C(=O)[C@H](C)N(C)C1=O [Compound 1860] ([NMeL]I[NMeA][Aze][NMeCha][Sar][hPhe(3-Cl-4-CF3)]P[Ac5c][NMeCba][NMeD]-Piperidide; lactam N-11) , state its recorded IC50.
Result: 11
